B1: ZNF263 (parent)
chain: LLRHQRIHTGERPYKCPECGKSFS

Variants of: B1
Protocol Notes: protein stability index of a GFP-peptide fusion (GPS, HEK-293T) (PSI 1-6); higher = more stable;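 further: lentivirally expressed fusions sorted by FACS into six bins by GFP to DsRed ratio, PSI derived from sequencing read proportions per bin multiplied by bin number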
Condition Description: c terminus: a fixed tail appended
Quantity Name: protein stability index
One number for each entry.

Input Sequence	Value Measured
LLRHQRIHTGARPYKCPECGKSFS [E11A]	2.26

Each of the following entries comes with a recorded value; kindly state protein stability index for each.
1. LLYHQRIHTGERPYKCPECGKSFS [R3Y]
2. LLRHQRIHTGERPGKCPECGKSFS [Y14G]
3. LLRHQRIHTGERPYKKPECGKSFS [C16K]
4. LLRHQRIHTDERPYKCPECGKSFS [G10D]
5. LLRHQRIHTGERPYKCPECGPSFS [K21P]

1. 1.62
2. 2.34
3. 3.44
4. 2.56
5. 2.61

Each of the following entries comes with a recorded value; kindly state protein stability index for each.
1. LLRHQIIHTGERPYKCPECGKSFS [R6I]
2. LLRHQRIHTGERFYKCPECGKSFS [P13F]

1: 2.22; 2: 2.01

Each of the following entries comes with a recorded value; kindly state protein stability index for each.
1. LLRHHRIHTGERPYKCPECGKSFS [Q5H]
2. LLRHQRIHTGERPYKCPECGASFS [K21A]
3. LLRHQRIHTGERPYKCPERGKSFS [C19R]
4. LLRHQRIHPGERPYKCPECGKSFS [T9P]
5. LLRHQRIHTGERPYKCPKCGKSFS [E18K]

[2.74, 2.93, 3.57, 2.45, 2.64]
